Experiment: Antioxidant activity assessed as DPPH scavenging activity after 4 hrs […]
Format: functional
pIC50: −log10 of the molar value.
Is pIC50 at least 4? Then Y. If not, N.

1. Cc1cc(C(C)(C)C)c(O)c(C(C)(C)C)c1 [BUTYLATED HYDROXYTOLUENE]
N
2. Oc1ccc(Cc2ccccc2Cl)cc1O
N
3. O=C(c1ccc(O)c(Br)c1)c1cc(O)c(O)cc1Br
Y
4. Oc1ccc(Cc2ccc(Cl)cc2)cc1O
N

Q: Check the entry Oc1ccc(Cc2cccc(Cl)c2)cc1O : does pIC50 equal or exceed 4?
Result: N

Q: Check the entry Oc1cc(Br)c(Cc2ccccc2)cc1O : does pIC50 equal or exceed 4?
Result: N
